Molecular target: T1, recombinant human soluble gpNMB (recombinant human gpNMB-FLAG-His) (human, UniProt Q14956 23-498)
T1 sequence: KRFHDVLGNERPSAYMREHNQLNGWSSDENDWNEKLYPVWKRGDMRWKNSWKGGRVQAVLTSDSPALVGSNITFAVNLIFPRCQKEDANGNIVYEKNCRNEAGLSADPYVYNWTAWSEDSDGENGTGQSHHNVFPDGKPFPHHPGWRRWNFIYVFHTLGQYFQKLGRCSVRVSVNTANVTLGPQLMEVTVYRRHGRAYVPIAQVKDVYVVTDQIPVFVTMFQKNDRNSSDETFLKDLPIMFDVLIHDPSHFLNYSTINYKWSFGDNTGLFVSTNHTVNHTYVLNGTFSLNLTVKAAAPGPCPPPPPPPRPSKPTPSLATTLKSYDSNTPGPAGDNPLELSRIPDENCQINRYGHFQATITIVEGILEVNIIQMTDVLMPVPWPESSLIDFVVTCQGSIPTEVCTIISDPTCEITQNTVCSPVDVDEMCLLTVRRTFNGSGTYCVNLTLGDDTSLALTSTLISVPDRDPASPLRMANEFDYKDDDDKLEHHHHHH
Assay: SPR single-cycle kinetics, antibody over captured gpNMB-FLAG-His, 36C, mean of 2
Quantity Kind: koff (s⁻¹)
// units = s⁻¹; emit number, no label

May I ask what koff has been recorded for hGPN18-5_H1L1 (antibody, V domains shown, humanized; also called hGPN18-5_VH1+VL1) VH: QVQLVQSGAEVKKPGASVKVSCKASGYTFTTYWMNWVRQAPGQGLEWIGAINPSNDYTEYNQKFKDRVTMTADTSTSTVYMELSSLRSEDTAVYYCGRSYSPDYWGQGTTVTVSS VL: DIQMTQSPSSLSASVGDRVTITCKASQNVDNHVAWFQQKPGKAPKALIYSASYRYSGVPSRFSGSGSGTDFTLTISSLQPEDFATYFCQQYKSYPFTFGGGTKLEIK ?
0.00307
